Entry source: patent US20250066745A1

Attribute: Activity of mutant relative to wild-type Gaussia luciferase without the signal peptide
experimental protocol: Luminescence activity assay of purified Gaussia luciferase mutants on coelenterazine
Type: biochemical
Design: key: ratio of mutant luminescence intensity to wild-type Gaussia luciferase
settings: Substrate CTZ (Table 16)
measured quantity: Activity of mutant relative to wild-type Gaussia luciferase without the signal peptide

>  <molecule>
N27D V29E A30G V31I A32V S33K A36I T37D L40T: Gaussia luciferase mutant (protein, SIGNAL (1)..(17), Gaussia luciferase mutant) MGVKVLFALICIAVAEAKPTENNEDFDIEGIVKNFIDTDTDADRGKLPGKKLPLEVLKEMEANARKAGCTRGCLICLSHIKCTPKMKKFIPGRCHTYEGDKESAQGGIGEAIVDIPEIPGFKDLEPMEQFIAQVDLCVDCTTGCLKGLANVQCSDLLKKWLPQRCATFASKIQGQVDKIKGAGGD

>  <reported measurement>
0.779

$$$$
>  <molecule>
K66R E102D E110P V138D: Gaussia luciferase mutant (protein, SIGNAL (1)..(17), Gaussia luciferase mutant) MGVKVLFALICIAVAEAKPTENNEDFNIVAVASNFATTDLDADRGKLPGKKLPLEVLKEMEANARRAGCTRGCLICLSHIKCTPKMKKFIPGRCHTYEGDKDSAQGGIGPAIVDIPEIPGFKDLEPMEQFIAQVDLCDDCTTGCLKGLANVQCSDLLKKWLPQRCATFASKIQGQVDKIKGAGGD

>  <reported measurement>
0.674

$$$$
>  <molecule>
F26T N27N V29E V31I A32G S33V A36R T37G L40G: Gaussia luciferase mutant (protein, SIGNAL (1)..(17), Gaussia luciferase mutant) MGVKVLFALICIAVAEAKPTENNEDTNIEAIGVNFRGTDGDADRGKLPGKKLPLEVLKEMEANARKAGCTRGCLICLSHIKCTPKMKKFIPGRCHTYEGDKESAQGGIGEAIVDIPEIPGFKDLEPMEQFIAQVDLCVDCTTGCLKGLANVQCSDLLKKWLPQRCATFASKIQGQVDKIKGAGGD

>  <reported measurement>
0.940

$$$$
>  <molecule>
P84A E102A S103I D123L V138D: Gaussia luciferase mutant (protein, SIGNAL (1)..(17), Gaussia luciferase mutant) MGVKVLFALICIAVAEAKPTENNEDFNIVAVASNFATTDLDADRGKLPGKKLPLEVLKEMEANARKAGCTRGCLICLSHIKCTAKMKKFIPGRCHTYEGDKAIAQGGIGEAIVDIPEIPGFKLLEPMEQFIAQVDLCDDCTTGCLKGLANVQCSDLLKKWLPQRCATFASKIQGQVDKIKGAGGD

>  <reported measurement>
0.473

$$$$
>  <molecule>
Q152R Q163S T167S S170D G174K Q175E K178N A182M: Gaussia luciferase mutant (protein, SIGNAL (1)..(17), Gaussia luciferase mutant) MGVKVLFALICIAVAEAKPTENNEDFNIVAVASNFATTDLDADRGKLPGKKLPLEVLKEMEANARKAGCTRGCLICLSHIKCTPKMKKFIPGRCHTYEGDKESAQGGIGEAIVDIPEIPGFKDLEPMEQFIAQVDLCVDCTTGCLKGLANVRCSDLLKKWLPSRCASFADKIQKEVDNIKGMGGD

>  <reported measurement>
4.609

$$$$
>  <molecule>
F26I A30D A32V S33G A36D T37K L40V: Gaussia luciferase mutant (protein, SIGNAL (1)..(17), Gaussia luciferase mutant) MGVKVLFALICIAVAEAKPTENNEDINIVDVVGNFDKTDVDADRGKLPGKKLPLEVLKEMEANARKAGCTRGCLICLSHIKCTPKMKKFIPGRCHTYEGDKESAQGGIGEAIVDIPEIPGFKDLEPMEQFIAQVDLCVDCTTGCLKGLANVQCSDLLKKWLPQRCATFASKIQGQVDKIKGAGGD

>  <reported measurement>
0.636

$$$$
>  <molecule>
F26S N27Y V29C A32G S33E A36Q T37G L40T: Gaussia luciferase mutant (protein, SIGNAL (1)..(17), Gaussia luciferase mutant) MGVKVLFALICIAVAEAKPTENNEDSYICAVGENFQGTDTDADRGKLPGKKLPLEVLKEMEANARKAGCTRGCLICLSHIKCTPKMKKFIPGRCHTYEGDKESAQGGIGEAIVDIPEIPGFKDLEPMEQFIAQVDLCVDCTTGCLKGLANVQCSDLLKKWLPQRCATFASKIQGQVDKIKGAGGD

>  <reported measurement>
0.119

$$$$
>  <molecule>
V29A A30D V31I A32V S33N L40A: Gaussia luciferase mutant (protein, SIGNAL (1)..(17), Gaussia luciferase mutant) MGVKVLFALICIAVAEAKPTENNEDFNIADIVNNFATTDADADRGKLPGKKLPLEVLKEMEANARKAGCTRGCLICLSHIKCTPKMKKFIPGRCHTYEGDKESAQGGIGEAIVDIPEIPGFKDLEPMEQFIAQVDLCVDCTTGCLKGLANVQCSDLLKKWLPQRCATFASKIQGQVDKIKGAGGD

>  <reported measurement>
1.046

$$$$
>  <molecule>
Q152H Q163T T167G S170N Q175E A182L G183A: Gaussia luciferase mutant (protein, SIGNAL (1)..(17), Gaussia luciferase mutant) MGVKVLFALICIAVAEAKPTENNEDFNIVAVASNFATTDLDADRGKLPGKKLPLEVLKEMEANARKAGCTRGCLICLSHIKCTPKMKKFIPGRCHTYEGDKESAQGGIGEAIVDIPEIPGFKDLEPMEQFIAQVDLCVDCTTGCLKGLANVHCSDLLKKWLPTRCAGFANKIQGEVDKIKGLAGD

>  <reported measurement>
0.177

$$$$
>  <molecule>
V29L A30G A32V S33G A36N T37A L40S: Gaussia luciferase mutant (protein, SIGNAL (1)..(17), Gaussia luciferase mutant) MGVKVLFALICIAVAEAKPTENNEDFNILGVVGNFNATDSDADRGKLPGKKLPLEVLKEMEANARKAGCTRGCLICLSHIKCTPKMKKFIPGRCHTYEGDKESAQGGIGEAIVDIPEIPGFKDLEPMEQFIAQVDLCVDCTTGCLKGLANVQCSDLLKKWLPQRCATFASKIQGQVDKIKGAGGD

>  <reported measurement>
0.764

$$$$
